All figures here come from PubChem BioAssay AID1919001.

- Tested on: 699152-130-R-J1-PDC complex spheroid growth;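 further: compound exposure lasted 7 days after spheroids had grown for 3 days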
- protocol-summary: Anticancer human tumor 699152-130-R-J1-PDC patient-derived pancreatic carcinoma cell line growth inhibition [AhR]
- condition-description: second compound 0.316 µM; first compound 0.3 µM; stronger effect = lower value
The threshold is 40%. Values of viability, T/C beneath it are tagged class 1; values meeting or exceeding it are tagged class 0.

*Q* Does CCc1c2c(nc3ccc(O)cc13)-c1cc3c(c(=O)n1C2)COC(=O)[C@]3(O)CC + CC(CO)NC(=O)c1cc(-c2ccc(Cl)cc2)nn(-c2cnn(C)c2)c1=O have viability, T/C strictly under 40%?
*A* class 0

*Q* Does CCN(c1cc(-c2ccc(CN3CCOCC3)cc2)cc(C(=O)NCc2c(C)cc(C)[nH]c2=O)c1C)C1CCOCC1 + Cc1cncc(-c2nc(NCCc3c[nH]c4ccccc34)c3ncn(C(C)C)c3n2)c1 have viability, T/C strictly under 40%?
*A* class 0

*Q* Does CC(C)CC(NC(=O)C(Cc1ccccc1)NC(=O)c1cnccn1)B(O)O (centres undefined) + CC(CO)NC(=O)c1cc(-c2ccc(Cl)cc2)nn(-c2cnn(C)c2)c1=O have viability, T/C strictly under 40%?
*A* class 1

*Q* Does O=C(C=Cn1cnc(-c2cc(C(F)(F)F)cc(C(F)(F)F)c2)n1)NNc1cnccn1 + CC(CO)NC(=O)c1cc(-c2ccc(Cl)cc2)nn(-c2cnn(C)c2)c1=O have viability, T/C strictly under 40%?
*A* class 0

*Q* Does CC(C)CC(NC(=O)C(Cc1ccccc1)NC(=O)c1cnccn1)B(O)O (centres undefined) + Cc1cncc(-c2nc(NCCc3c[nH]c4ccccc34)c3ncn(C(C)C)c3n2)c1 have viability, T/C strictly under 40%?
*A* class 1

*Q* Does CC(C)CC(NC(=O)C(Cc1ccccc1)NC(=O)c1cnccn1)B(O)O (centres undefined) + Cc1ccccc1N=Nc1ccc(NC(=O)c2ccnn2C)c(C)c1 have viability, T/C strictly under 40%?
*A* class 1

*Q* Does Nc1ncn(C2CC(O)C(CO)S2)c(=O)n1 (centres undefined) + CC(CO)NC(=O)c1cc(-c2ccc(Cl)cc2)nn(-c2cnn(C)c2)c1=O have viability, T/C strictly under 40%?
*A* class 0

Others:
*Q* Does O=C(C=Cn1cnc(-c2cc(C(F)(F)F)cc(C(F)(F)F)c2)n1)NNc1cnccn1 + Cc1ccccc1N=Nc1ccc(NC(=O)c2ccnn2C)c(C)c1 have viability, T/C strictly under 40%?
*A* class 0
